Source of measurements: patent US10165777B2

System: Oryza sativa
Test: Paddy herbicidal activity test, phytotoxicity to transplanted rice
Format: in vivo
Conditions: 1 g a.i./10 a; rice transplanted in 2.0 leaf stage; 30 days
metric: phytotoxicity, Oryza sativa

Input line: Using known records, supply phytotoxicity, Oryza sativa for N#Cc1cnn(-c2nn3c(c2Cl)CCCC3)c1/C=C/c1ccccn1 [Compound 3.43, reference compound]
Output line: 1 (10% to less than 20%)

----------
Tested on: Digitaria ciliaris
Assay: Weed foliar treatment test (Test 4, 4.0 to 5.0 leaf stage)
Assay type: in vivo
Conditions: 10 g a.i./10 a; foliar spray at 4.0 to 5.0 leaf stage of Digitaria ciliaris (plant height 10 cm to 15 cm); 20 days
So I've got a bunch of compounds here, and I need their herbicidal efficacy, Digitaria ciliaris values.

Check out these entries, answers already filled in.
N#Cc1cnn(-c2nn3c(c2Cl)CCCC3)c1N=Cc1cccc(Cl)c1 = 10 (100%)
N#Cc1cnn(-c2nn3c(c2Cl)CCCC3)c1/C=C/c1ccccn1 [Compound 3.43, reference compound] = 1 (10% to less than 20%)
CC(=Nc1c(C#N)cnn1-c1nn2c(c1Cl)CCCC2)c1ccc[nH]1 = 10 (100%)

Next compound, please.
Input line: Using known records, supply herbicidal efficacy, Digitaria ciliaris for CC(=Nc1c(C#N)cnn1-c1nn2c(c1Cl)CCCC2)c1cnccn1
Output line: 10 (100%)

----------
So I've got a bunch of compounds here, and I need their herbicidal efficacy, Galinsoga parviflora values.
Tested on: Galinsoga parviflora
Assay: Weed foliar treatment test (Test 4, 4.0 to 5.0 leaf stage)
Assay type: in vivo
Details: 10 g a.i./10 a; foliar spray at 4.0 to 5.0 leaf stage of Digitaria ciliaris; 20 days

Check out these entries, answers already filled in.
CC(=Nc1c(C#N)cnn1-c1nn2c(c1Cl)CCCC2)c1cccnc1 [Compound 25] = 10 (100%)
N#Cc1cnn(-c2nn3c(c2Cl)CCCC3)c1N=Cc1ccccc1OC(F)F [Compound 12] = 10 (100%)
COC=Nc1c(C#N)cnn1-c1nn2c(c1Cl)CCCC2 [Compound 33] = 10 (100%)

Hey, quick one: what's herbicidal efficacy, Galinsoga parviflora for each of these?
1. N#Cc1cnn(-c2nn3c(c2Cl)CCCC3)c1N=Cc1ccccn1 [Compound 21]
2. CC(=Nc1c(C#N)cnn1-c1nn2c(c1Cl)CCCC2)c1ccc[nH]1 [Compound 29]
3. N#Cc1cnn(-c2nn3c(c2Cl)CCCC3)c1/C=C/c1ncccn1 [Compound 3.39, reference compound]
4. N#Cc1cnn(-c2nn3c(c2Cl)CCCC3)c1N=Cc1ccccc1F [Compound 13]
5. N#Cc1cnn(-c2nn3c(c2Cl)CCCC3)c1N=Cc1ccncc1 [Compound 23]
6. N#Cc1cnn(-c2nn3c(c2Cl)CCCC3)c1N=Cc1ccoc1 [Compound 32]
7. N#Cc1cnn(-c2nn3c(c2Cl)CCCC3)c1N=Cc1ccc[nH]1 [Compound 28]

Output line:
1. 10 (100%)
2. 10 (100%)
3. 3 (30% to less than 40%)
4. 10 (100%)
5. 10 (100%)
6. 10 (100%)
7. 10 (100%)

Hey, quick one: what's herbicidal efficacy, Galinsoga parviflora for each of these?
1. N#Cc1cnn(-c2nn3c(c2Cl)CCCC3)c1/C=C/c1ccccn1 [Compound 3.43, reference compound]
2. N#Cc1cnn(-c2nn3c(c2Cl)CCCC3)c1N=Cc1cccnc1 [Compound 22]
3. CC(C)OC=Nc1c(C#N)cnn1-c1nn2c(c1Cl)CCCC2 [Compound 36]
4. CC(=Nc1c(C#N)cnn1-c1nn2c(c1Cl)CCCC2)c1ccccn1 [Compound 24]
5. CCOC=Nc1c(C#N)cnn1-c1nn2c(c1Cl)CCCC2 [Compound 34]
6. N#Cc1cnn(-c2nn3c(c2Cl)CCCC3)c1N=Cc1cccc(Cl)c1 [Compound 17]

Output line:
1: 3 (30% to less than 40%); 2: 10 (100%); 3: 10 (100%); 4: 10 (100%); 5: 10 (100%); 6: 10 (100%)

Input line: Using known records, supply herbicidal efficacy, Galinsoga parviflora for N#Cc1cnn(-c2nn3c(c2Cl)CCCC3)c1N=Cc1ccsc1 [Compound 31]
Output line: 10 (100%)
